- experimental system: Fes (UniProt P07332)
- Sequence (P07332 whole entry, looked up): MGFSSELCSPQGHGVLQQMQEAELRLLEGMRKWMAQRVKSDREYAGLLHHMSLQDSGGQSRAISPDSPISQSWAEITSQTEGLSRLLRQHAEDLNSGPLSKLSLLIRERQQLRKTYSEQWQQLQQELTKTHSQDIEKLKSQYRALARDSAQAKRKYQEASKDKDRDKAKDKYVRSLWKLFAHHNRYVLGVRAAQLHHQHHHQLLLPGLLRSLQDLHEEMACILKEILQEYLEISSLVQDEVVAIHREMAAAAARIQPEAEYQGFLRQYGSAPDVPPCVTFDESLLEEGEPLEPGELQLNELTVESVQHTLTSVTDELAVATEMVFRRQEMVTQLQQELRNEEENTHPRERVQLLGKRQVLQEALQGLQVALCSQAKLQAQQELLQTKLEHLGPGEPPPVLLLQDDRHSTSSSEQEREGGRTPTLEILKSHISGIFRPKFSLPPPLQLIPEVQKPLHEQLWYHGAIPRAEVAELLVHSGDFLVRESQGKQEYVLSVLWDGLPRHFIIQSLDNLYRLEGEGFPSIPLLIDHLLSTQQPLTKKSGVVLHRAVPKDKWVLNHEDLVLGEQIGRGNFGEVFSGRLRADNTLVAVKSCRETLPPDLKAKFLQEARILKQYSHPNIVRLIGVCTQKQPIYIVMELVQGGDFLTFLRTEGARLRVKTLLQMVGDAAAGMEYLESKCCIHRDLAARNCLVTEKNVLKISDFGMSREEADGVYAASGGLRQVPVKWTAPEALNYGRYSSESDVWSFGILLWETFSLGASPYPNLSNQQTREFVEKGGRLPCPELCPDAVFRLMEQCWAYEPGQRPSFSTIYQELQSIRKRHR
- experiment summary: phosphorylation enrichment, bacterial display (enrichment ratio); higher = better substrate or ligand; peptides without Tyr show the background;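 note: 11-residue human phosphosite peptides and single-mutation variants displayed on the E. coli surface, counted by deep sequencing, each peptide's frequency after selection divided by its frequency in the unselected input library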;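 note: frequency after pTyr selection over input frequency; kinase dosed for 20-30% of maximal phosphorylation in three min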
Consider the following sequences and their measured phosphorylation enrichment readings.

>  <residue codes>
SNKLHYQLEQE [PDPR_Y110_Y109H]

>  <phosphorylation enrichment>
1

$$$$
>  <residue codes>
TTICKYSTPME [GUCY2C_Y839]

>  <phosphorylation enrichment>
0.801

$$$$
>  <residue codes>
EVKAQNEDIAQ [KRT1_Y358_Y358N]

>  <phosphorylation enrichment>
0.867

$$$$
>  <residue codes>
FSTDFYRVGGH [NTRK2_Y707_YF]

>  <phosphorylation enrichment>
0.813

$$$$
>  <residue codes>
GTAPSYGNPSS [CD19_Y378]

>  <phosphorylation enrichment>
0.56

$$$$
>  <residue codes>
EDEGLYMVRVP [MYOM3_Y343]

>  <phosphorylation enrichment>
1.43

$$$$
>  <residue codes>
KGEDFYCVTCP [FHL1_Y149_H154P]

>  <phosphorylation enrichment>
1.01

$$$$
>  <residue codes>
SGFESYGSSSS [RPA2_Y9_Y14S]

>  <phosphorylation enrichment>
0.658

$$$$
>  <residue codes>
GEEIKDMLWLS [OTC_Y55_Y55D]

>  <phosphorylation enrichment>
1

$$$$
>  <residue codes>
KACKHYLTTRT [ZBTB5_Y118]

>  <phosphorylation enrichment>
0.964

$$$$
>  <residue codes>
GNLLIYTEFGK [HGD_Y166]

>  <phosphorylation enrichment>
1.28

$$$$
>  <residue codes>
KMGNIYRTEFG [MRPL3_Y265_YF]

>  <phosphorylation enrichment>
0.5

$$$$
>  <residue codes>
PFSNPYENSLI [EPOR_Y489_YF]

>  <phosphorylation enrichment>
1.48

$$$$
>  <residue codes>
HRERPYGGGGG [FUS_Y526_R521H]

>  <phosphorylation enrichment>
0.714

$$$$
>  <residue codes>
WRPFGYPRRRR [BCS1L_Y181]

>  <phosphorylation enrichment>
0.513

$$$$
>  <residue codes>
SSVPDYLAAVD [GLB1_Y154_D151V]

>  <phosphorylation enrichment>
1.19

$$$$
>  <residue codes>
AEPHTYEEPGR [EPHA8_Y616]

>  <phosphorylation enrichment>
0.824

$$$$
>  <residue codes>
REVPVYIGEDS [SYNM_Y460]

>  <phosphorylation enrichment>
1.36

$$$$
>  <residue codes>
DHAGEYGAEAL [HBA1_Y25_A20D]

>  <phosphorylation enrichment>
0.892

$$$$
>  <residue codes>
MGGSLYFSFPD [HIKESHI_Y55_V54L_YF]

>  <phosphorylation enrichment>
1.8

$$$$
>  <residue codes>
DAVCFYRMENA [NPHS2_Y195_I192V_YF]

>  <phosphorylation enrichment>
1.23

$$$$
>  <residue codes>
EFGFRYELVQY [UGGT2_Y1289_Y1285F]

>  <phosphorylation enrichment>
1.14

$$$$
>  <residue codes>
HSLLQYGGSAN [ANK1_Y624_R619H]

>  <phosphorylation enrichment>
0.481

$$$$
>  <residue codes>
AKKKMYSHKTK [AGXT_Y231_R233H]

>  <phosphorylation enrichment>
1.63

$$$$
>  <residue codes>
CTTIHYNFMCK [TP53_Y234_N239K_YF]

>  <phosphorylation enrichment>
0.816

$$$$
>  <residue codes>
AFAEVYEGQVS [ALK_Y1131_G1128A]

>  <phosphorylation enrichment>
0.974

$$$$
>  <residue codes>
NVADHYGVFKP [ATP6V0D2_Y271_YF]

>  <phosphorylation enrichment>
0.691

$$$$
>  <residue codes>
AAVDTVCRHNF [HLA-DRB1_Y107_Y107V_YF]

>  <phosphorylation enrichment>
1.29

$$$$
>  <residue codes>
GGPTYYIDTNA [ACTL6A_Y69]

>  <phosphorylation enrichment>
0.893

$$$$
>  <residue codes>
QLHREYCLSPR [HJURP_Y445]

>  <phosphorylation enrichment>
1.12

$$$$
>  <residue codes>
WKKKIYEESST [MOCS2_Y170_E168K]

>  <phosphorylation enrichment>
1.05

$$$$
>  <residue codes>
PLGPLYASSNP [INSR_Y992]

>  <phosphorylation enrichment>
1.65

$$$$
>  <residue codes>
KLSFSYGRALQ [ALDOB_Y302]

>  <phosphorylation enrichment>
0.994

$$$$
>  <residue codes>
LEEFQYIGESQ [MSH2_Y856]

>  <phosphorylation enrichment>
1.62

$$$$
>  <residue codes>
RGNMYYENSYA [EGFR_Y113]

>  <phosphorylation enrichment>
1.2

$$$$
>  <residue codes>
CKLCQYYLDHL [ATRX_Y1849_Y1847C]

>  <phosphorylation enrichment>
0.779

$$$$
>  <residue codes>
TPTYPYLLPKS [PLD2_Y580]

>  <phosphorylation enrichment>
0.599

$$$$
>  <residue codes>
SMEMKYLEEKN [ZAP70_Y451_G448E]

>  <phosphorylation enrichment>
1.47

$$$$
>  <residue codes>
ECKHLYSRKEG [PTPN11_Y263_L261H]

>  <phosphorylation enrichment>
0.579

$$$$
>  <residue codes>
PQGVGYPPQPQ [EP300_Y2219_Q2223P]

>  <phosphorylation enrichment>
0.904

$$$$
>  <residue codes>
ILTYKYLQIPM [KIT_Y547_K550I]

>  <phosphorylation enrichment>
0.997

$$$$
